target: cyclin B/CDK1 enzyme (Homo sapiens); construct: purchased New England BioLabs; host or cells: Sf9 insect cells, recombinant baculovirus; test: CDK1 ELISA kinase assay (phospho-Rb ser 795 detection); type: biochemical; conditions: In Vitro Enzyme Assay, cyclin B/CDK1, read-out: CDK1 IC50
assay-metric: IC50

smiles-notation: CCCN(Cc1ccc(NC=C2C(=O)NC(=O)c3ccccc32)cc1)CC1CC1
IC50: 11.8 µM
//
smiles-notation: CN(CCN1CCCC1)c1ccc(N/C=C2\C(=O)NC(=O)c3ccc(Br)cc32)cc1
IC50: > 50 µM

Requested read-out: IC50. Entry: O=C1NC(=O)c2ccc(C=CC3CCCCC3)cc2C1=CNCc1ccc(O)c(O)c1
> 50 µM

====

target: cyclin B/CDK1 enzyme (Homo sapiens, UniProt P06493); construct: purchased New England BioLabs; host or cells: Sf9 insect cells, recombinant baculovirus; assay: CDK1 ELISA kinase assay (phospho-Rb ser 795 detection); type: biochemical; settings: In Vitro Enzyme Assays, read-out: CDK1 IC50
Sequence (P06493 whole entry): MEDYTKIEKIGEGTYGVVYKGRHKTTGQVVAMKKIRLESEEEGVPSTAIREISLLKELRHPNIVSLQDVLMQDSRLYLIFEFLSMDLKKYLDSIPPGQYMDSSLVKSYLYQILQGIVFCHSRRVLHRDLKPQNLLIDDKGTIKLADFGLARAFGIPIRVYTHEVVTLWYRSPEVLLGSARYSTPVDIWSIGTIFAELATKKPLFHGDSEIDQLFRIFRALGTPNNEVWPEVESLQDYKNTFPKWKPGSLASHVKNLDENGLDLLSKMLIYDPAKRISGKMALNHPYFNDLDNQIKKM
Sequence (P14635 whole entry partner): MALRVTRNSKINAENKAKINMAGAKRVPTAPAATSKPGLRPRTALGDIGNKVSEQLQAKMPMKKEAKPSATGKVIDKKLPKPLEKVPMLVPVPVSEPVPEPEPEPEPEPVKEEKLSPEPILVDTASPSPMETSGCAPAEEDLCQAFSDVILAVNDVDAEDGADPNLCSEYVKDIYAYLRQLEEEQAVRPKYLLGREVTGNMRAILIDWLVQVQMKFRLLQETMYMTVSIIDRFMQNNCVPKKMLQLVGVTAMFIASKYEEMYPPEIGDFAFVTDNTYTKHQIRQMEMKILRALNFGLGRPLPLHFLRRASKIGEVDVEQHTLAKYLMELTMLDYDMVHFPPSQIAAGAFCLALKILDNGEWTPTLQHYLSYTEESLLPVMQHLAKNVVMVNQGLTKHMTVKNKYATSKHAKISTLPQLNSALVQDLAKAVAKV
pIC50: −log10 of the molar value.
Each record here notes measured pIC50.

compound: O=C1NC(=O)c2ccc(-c3ccsc3)cc2/C1=C/Nc1ccc(N2CCN(CC3CC3)CC2)nc1 [Example 418]
experimental-target: cyclin B/CDK1 enzyme (Homo sapiens, UniProt P06493)
pIC50: < 4.30

Short answer please: pIC50, cyclin B/CDK1 enzyme (Homo sapiens, UniProt P06493), entry COc1ccc(N/C=C2\C(=O)NC(=O)c3ccccc32)cc1 [Example 1]
< 4.44

====

biological target: cyclin D1/cdk 4 enzyme (Homo sapiens); construct: made in house; host or cells: Sf9 insect cells, recombinant baculovirus; test: CDK4 ELISA kinase assay (phospho-Rb ser 795 detection); type: biochemical; conditions: In Vitro Enzyme Assay, cyclin D1/cdk 4, read-out: CDK4 IC50
Sequence (P11802 whole entry, species assumed): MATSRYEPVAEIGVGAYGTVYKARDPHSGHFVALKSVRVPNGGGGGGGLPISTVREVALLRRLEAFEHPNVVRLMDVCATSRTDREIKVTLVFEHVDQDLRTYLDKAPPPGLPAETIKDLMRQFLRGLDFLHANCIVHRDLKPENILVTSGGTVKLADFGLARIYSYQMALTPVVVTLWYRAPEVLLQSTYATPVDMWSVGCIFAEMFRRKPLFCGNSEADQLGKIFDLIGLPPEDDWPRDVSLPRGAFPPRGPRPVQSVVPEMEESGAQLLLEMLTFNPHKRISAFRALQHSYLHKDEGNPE
Sequence (P24385 whole entry partner, species assumed): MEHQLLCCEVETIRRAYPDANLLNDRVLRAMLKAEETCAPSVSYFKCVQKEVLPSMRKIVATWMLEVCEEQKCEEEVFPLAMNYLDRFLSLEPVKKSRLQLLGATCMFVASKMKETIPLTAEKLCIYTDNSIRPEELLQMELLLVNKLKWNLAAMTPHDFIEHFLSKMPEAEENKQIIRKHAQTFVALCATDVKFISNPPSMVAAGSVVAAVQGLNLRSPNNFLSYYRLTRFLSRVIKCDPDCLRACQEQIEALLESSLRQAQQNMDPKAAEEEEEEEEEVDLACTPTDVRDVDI
pIC50: −log10 of the molar value.
# binarize pIC50: threshold 5 inclusive, high side 1, low side 0

Entry COCCN(C)Cc1ccc(N/C=C2\C(=O)NC(=O)c3ccccc32)cc1 : is its pIC50 no less than 5?
0

And what about the compound CCS(=O)(=O)Nc1cccc(CNC=C2C(=O)NC(=O)c3ccccc32)c1 ?
0

And what about the compound O=C1NC(=O)c2ccc(I)cc2/C1=C/Nc1ccc(CN2CCS(=O)(=O)CC2)cc1 ?
0

And what about the compound NS(=O)(=O)c1ccc(CNC=C2C(=O)NC(=O)c3ccc(-c4ccc5[nH]ccc5c4)cc32)cc1 ?
1

====

Each record here notes measured IC50.
target: cyclin B/CDK1 enzyme (Homo sapiens); construct: purchased New England BioLabs; host or cells: Sf9 insect cells, recombinant baculovirus; assay: CDK1 ELISA kinase assay (phospho-Rb ser 795 detection); assay type: biochemical; details: In Vitro Enzyme Assays, read-out: CDK1 IC50

// below: answered compounds
smiles-notation: O=C1NC(=O)c2ccc(Br)cc2/C1=C/NCc1ccc(NC(=O)C(Cl)Cl)c(O)c1
IC50: 6.8 µM

smiles-notation: C[C@@H]1CN(c2ccc(N/C=C3\C(=O)NC(=O)c4ccc(I)cc43)cc2)C[C@H](C)N1
IC50: > 50 µM

smiles-notation: COc1ccc(CN/C=C2\C(=O)NC(=O)c3ccc(NS(=O)(=O)c4ccccc4)cc32)cc1O
IC50: > 50 µM

smiles-notation: CN1CCN(c2ccc(N/C=C3\C(=O)NC(=O)c4ccc(I)cc43)cn2)CC1
IC50: 32.4 µM

Requested read-out: IC50. Entry: CN1CCN(c2ccc(N/C=C3\C(=O)NC(=O)c4ccc(NC(=O)Cc5cccs5)cc43)cc2)CC1
12 µM

And what about the compound CN(CCN1CCCC1)c1ccc(N/C=C2\C(=O)NC(=O)c3ccc(Br)cc32)cc1 ?
> 50 µM

And what about the compound CCCOc1ccc(CN/C=C2\C(=O)NC(=O)c3ccc(Br)cc32)cc1O ?
42.5 µM

And what about the compound CN(C)Cc1ccc(N/C=C2\C(=O)NC(=O)c3ccccc32)cc1 ?
> 29 µM

And what about the compound CCCOc1ccc(CN/C=C2\C(=O)NC(=O)c3ccc(-c4cccc(F)c4)cc32)cc1O ?
> 50 µM

And what about the compound CC(C)N1CCN(c2ccc(N/C=C3\C(=O)NC(=O)c4ccc(-c5ccsc5)cc43)cn2)CC1 ?
> 50 µM

And what about the compound O=C1NC(=O)c2ccc(Br)cc2/C1=C/NCc1ccncc1 ?
> 50 µM

And what about the compound CC(C)N1CCN(c2ccc(N/C=C3\C(=O)NC(=O)c4ccc(I)cc43)cc2)CC1 ?
> 50 µM

And what about the compound CN(C)CCNCC1CCN(c2ccc(N/C=C3\C(=O)NC(=O)c4ccc(I)cc43)cc2)CC1 ?
> 50 µM

Measured values drawn from patent US7713994B2 for this set.
